Test system: ABL1-phosphorylated;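 note: KINOMEscan kinase panel screen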
Conditions: concentration: 1 μM, replicates: in singlicate; n = 1
Kind request: treat 10% as inclusive, so %Inh at 10% or higher is 1, anything lower is 0.

{"COMPOUND": "Cn1cc(-c2ccc3c(c2)CCN3C(=O)Cc2cccc(Cl)c2)c2c(N)ncnc21 [GSK2606590]", "CLASSIFICATION": 1}

(Q) Hello, I need to know if O=C(Nc1cccc(-c2nn3ccccc3c2-c2ccnc(Nc3cccc(F)c3)n2)c1)c1c(F)ccc(F)c1Cl [GSK357952] has measured %Inh not below 10%. Thanks!
(A) 0

(Q) Hi team, for Cc1ccc(C(=O)Nc2ccc(Nc3ccnc4cc(-c5nccs5)ccc34)cc2O)cc1.Cl [GW494702] , is the recorded %Inh at or above 10%?
(A) 1
